Data provenance is patent US20230002496A1.

Each entry below carries its recorded IC50, TF-1 cell proliferation.
- ASSAYED_TARGET: T1, human GM-CSFRα, full length on cells (human, UniProt P15509 23-400)
- T1 sequence: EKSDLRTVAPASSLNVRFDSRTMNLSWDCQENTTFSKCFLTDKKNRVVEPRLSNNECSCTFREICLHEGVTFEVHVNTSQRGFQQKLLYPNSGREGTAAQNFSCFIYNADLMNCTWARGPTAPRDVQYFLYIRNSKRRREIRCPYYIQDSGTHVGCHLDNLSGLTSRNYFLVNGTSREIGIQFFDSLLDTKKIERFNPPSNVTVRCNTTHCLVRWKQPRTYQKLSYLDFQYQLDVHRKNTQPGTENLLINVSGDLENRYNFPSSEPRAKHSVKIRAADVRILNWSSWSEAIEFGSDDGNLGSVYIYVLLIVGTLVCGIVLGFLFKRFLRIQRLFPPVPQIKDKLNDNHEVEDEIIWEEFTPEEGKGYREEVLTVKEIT
- ASSAY: cell-based or functional assay
// note: answer is a bare numeric in µg/mL

Example entries and their recorded answers appear below.
E35-scFv LS28A (scFv, V domains shown) VH: QMQLVQSGAEVKKPGASVKVSCKVSGYTLTELSIHWVRQAPGKGLEWMGGFDPEDGETIYAQKFQGRVTMTGDTSTDTAYLELSSLRSEDTALYYCATGRYTSLATTYGFDYWGQGTLVTVSS VL: EIVMTQSPATLSLSPGERATLSCRASQAVSSYLAWYQQKPGQAPRLLIYGASSRATGIPDRFSGSGSGTDFTLTISRLEPEDFAVYYCQQYDNWPYTFGQGTKLEIK
0.116
E35-scFv LA51R (scFv, V domains shown) VH: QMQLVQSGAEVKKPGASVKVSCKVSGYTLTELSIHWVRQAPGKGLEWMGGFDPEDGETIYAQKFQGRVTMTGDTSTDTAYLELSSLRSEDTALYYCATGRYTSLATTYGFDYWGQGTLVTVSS VL: EIVMTQSPATLSLSPGERATLSCRASQSVSSYLAWYQQKPGQAPRLLIYGRSSRATGIPDRFSGSGSGTDFTLTISRLEPEDFAVYYCQQYDNWPYTFGQGTKLEIK
0.12

(Q) What value of IC50, TF-1 cell proliferation has been reported for the following binder? E35-scFv LS52T (scFv, V domains shown) VH: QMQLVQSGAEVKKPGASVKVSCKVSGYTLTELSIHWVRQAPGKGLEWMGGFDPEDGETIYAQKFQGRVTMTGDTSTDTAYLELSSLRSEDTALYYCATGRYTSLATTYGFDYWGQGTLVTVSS VL: EIVMTQSPATLSLSPGERATLSCRASQSVSSYLAWYQQKPGQAPRLLIYGATSRATGIPDRFSGSGSGTDFTLTISRLEPEDFAVYYCQQYDNWPYTFGQGTKLEIK
(A) 0.136

(Q) What value of IC50, TF-1 cell proliferation has been reported for the following binder? E35-scFv LD92G (scFv, V domains shown) VH: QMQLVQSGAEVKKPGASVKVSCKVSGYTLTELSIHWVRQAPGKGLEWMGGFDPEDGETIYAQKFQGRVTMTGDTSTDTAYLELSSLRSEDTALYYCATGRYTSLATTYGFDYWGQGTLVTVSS VL: EIVMTQSPATLSLSPGERATLSCRASQSVSSYLAWYQQKPGQAPRLLIYGASSRATGIPDRFSGSGSGTDFTLTISRLEPEDFAVYYCQQYGNWPYTFGQGTKLEIK
(A) 0.522

(Q) What value of IC50, TF-1 cell proliferation has been reported for the following binder? E35-scFv LQ27V (scFv, V domains shown) VH: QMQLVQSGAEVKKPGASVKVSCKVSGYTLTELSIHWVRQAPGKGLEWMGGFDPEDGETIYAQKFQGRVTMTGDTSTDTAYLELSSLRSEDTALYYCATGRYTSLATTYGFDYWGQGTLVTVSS VL: EIVMTQSPATLSLSPGERATLSCRASVSVSSYLAWYQQKPGQAPRLLIYGASSRATGIPDRFSGSGSGTDFTLTISRLEPEDFAVYYCQQYDNWPYTFGQGTKLEIK
(A) 0.12
